The reader will find reported blood plasma ratio values listed item by item below.
# assay_info: Ratio of drug level in blood to plasma in Wistar Hannover rat at 0.3 to 0.5 mg/kg, iv by LC-MS/MS analysis
# Assay type: ADME, organism-based
# test_conditions: blood and plasma, dose 0.3-0.5 mg/kg, time <=24 hrs
Answer with the value's number alone.

Worked examples follow.
COc1cc(C(=O)N2CCOC(C)(CCO)C2)cc2nc(N[C@H](C)c3cccc(Cl)c3)oc12 (stereo partly drawn); 1.07
COc1cc(C(=O)N2CC(C)(CCO)OC[C@H]2C)cc2nc(N[C@H](CF)c3cccc(Cl)c3)oc12 (stereo partly drawn); 0.94
COc1cc(C(=O)N2CC(C)(CCO)OC[C@H]2C)cn2nc(NCc3cccc(Cl)c3)nc12 (stereo partly drawn); 1.35
COc1cc(C(=O)N2CC(C)OCC2CCO)cc2nc(NCc3cc(Cl)ccn3)oc12 (stereo not drawn); 1.08
COc1cc(C(=O)N2CC(C)(CCO)OC[C@H]2C)cc2nc(NCc3cc(Cl)ccn3)oc12 (stereo partly drawn); 1.08
COc1cc(C(=O)N2CC[C@@H](O)[C@H](C)C2)cc2nc(NCc3cccc(Cl)c3)oc12; 1.24

Q. # blood plasma ratio lookup, item `CC[C@@H]1CO[C@@](C)(CCO)CN1C(=O)c1cc(OC)c2oc(N[C@H](C)c3cccc(Cl)c3)nc2c1`
A. 1.07

Q. Can you share its blood plasma ratio? I mean this molecule: COc1cc(C(=O)N2CC(C)OCC2CO)cc2nc(N[C@H](C)c3cccc(Cl)c3)oc12 (stereo partly drawn)
A. 0.88

---

# assay_info: MRT in Wistar Hannover rat at 0.3 to 0.5 mg/kg, iv by LC-MS/MS analysis
# Assay type: ADME, organism-based
# test_conditions: in vivo, dose 0.3-0.5 mg/kg, time <=24 hrs
Rule: MRT under 1 h gives Criterion not met, otherwise Criterion met.

Previously resolved entries follow.
CC[C@@H]1CO[C@@](C)(CCO)CN1C(=O)c1cc(OC)c2oc(N[C@H](C)c3cccc(Cl)c3)nc2c1; Criterion met
COc1cc(C(=O)N2CC[C@@H](O)[C@H](C)C2)cc2nc(NCc3cccc(Cl)c3)oc12; Criterion met
COc1cc(C(=O)N2CC(C)(CCO)OC[C@H]2C)cn2nc(NCc3cccc(Cl)c3)nc12 (stereo not given in full); Criterion not met
COc1cc(C(=O)N2CC(C)OCC2CCO)cc2nc(NCc3cc(Cl)ccn3)oc12 (stereo not given); Criterion not met
COc1cc(C(=O)N2CC(C)(CCO)OC[C@H]2C)cc2nc(NCc3cc(Cl)ccn3)oc12 (stereo not given in full); Criterion not met
COc1cc(C(=O)N2CCOC(C)(CCO)C2)cc2nc(N[C@H](C)c3cccc(Cl)c3)oc12 (stereo not given in full); Criterion met
COc1cc(C(=O)N2C[C@H](C)OC[C@@H]2CCO)cc2nc(N[C@H](CF)c3cccc(Cl)c3)oc12; Criterion met
COc1cc(C(=O)N2CC(C)OCC2CO)cc2nc(N[C@H](C)c3cccc(Cl)c3)oc12 (stereo not given in full); Criterion met
CCCCCCOC(=O)NC(=N)c1ccc(NCc2nc3cc(C(=O)N(CCC(=O)OCC)c4ccccn4)ccc3n2C)cc1 [DABIGATRAN ETEXILATE]; Criterion met

Okay, next one:
Q. Given COc1cc(C(=O)N2CC(C)(CCO)OC[C@H]2C)cc2nc(N[C@H](CF)c3cccc(Cl)c3)oc12 (stereo not given in full) , state whether its MRT is at least 1 h.
A. Criterion met
